Each entry below carries its recorded growth.
- System: SF-539 CNS
- protocol.description: NCI-60 one-dose screen, 48 h (100 = growth as untreated, 0 = no growth, -100 = all killed)
- protocol.conditions: 10 µM unless noted
Compounds without any hit were thinned out: in the full panel of roughly 83,000, 20% have a hit.
// units = %; emit number, no label

Example results:
Cc1ccc(NC(=O)CN2CCOCC2)cc1Cl :: 98.7
O=C(Nc1cccc([N+](=O)[O-])c1)c1ccc2ccccc2c1O :: 55.2
O=C1OC(N(Cc2ccc(Cl)cc2)c2ccccc2)c2ccccc21 (stereo unspecified) :: 99.7
CCOC(=O)C1=C(N)Oc2cc(OC)ccc2C1c1ccc(F)c(F)c1 (stereo unspecified) :: 17.8
C=CC(C)(O)CCC1C(=C)CCC2C(C)(C)CCCC12C (stereo unspecified) :: 106

Problem: # get_value(readout='growth', item= `CCOC(=O)c1cnc2c(OC)ccc(OC)c2c1Cl` )
Result: 104

Problem: # get_value(readout='growth', item= `Oc1ccc(O)c(-[n+]2ccccc2)c1` )
Result: 108

Problem: # get_value(readout='growth', item= `COc1ccc(-c2c(C#N)cnc(N)c2-c2nc3cc(C)c(C)cc3[nH]2)cc1` )
Result: 92

Problem: # get_value(readout='growth', item= `CC(=S)Nc1ccccc1` )
Result: 102

Problem: # get_value(readout='growth', item= `COc1ccc(-c2nn(-c3ccc(NC(=O)Nc4ccc(Cl)c(Cl)c4)cc3)cc2-c2ccncc2)cc1Cl` )
Result: 15.7

Problem: # get_value(readout='growth', item= `CN1CCN(Cn2nc(-c3cc(F)c(Cl)cc3Cl)n(/N=C/c3ccc(N(C)C)cc3)c2=S)CC1` )
Result: 78.1

* * *

- Tested on: MALME-3M melanoma
- protocol.description: NCI-60 one-dose screen, 48 h (100 = growth as untreated, 0 = no growth, -100 = all killed)
- protocol.conditions: 10 µM unless noted
The panel holds about 83,000 compounds, 20% with a hit somewhere; the sample as a whole holds those more often.
// boundary case: growth equal to 70% maps to Criterion not met; strictly smaller maps to Criterion met

Nc1n[nH]c2cccc(C#Cc3cccc(NC(=O)c4cccc(C(F)(F)F)c4)c3)c12 :: Criterion met
C=C1C(=O)O[C@H]2[C@H]1CC/C(C(=O)Nc1ccc(OC)c(C(N)=O)c1O)=C\CC[C@@]1(C)O[C@@H]21 :: Criterion met
O=C(NCCNc1nccc(-c2c(-c3cccc(O)c3)nc3sccn23)n1)c1ccccc1 :: Criterion met
CC(=O)Cc1cccnc1 :: Criterion not met
C=C1C(=O)O[C@H]2[C@H]1CC/C(COC(=O)c1ccccc1)=C\CC[C@@]1(C)O[C@@H]21 :: Criterion met
NN=C(c1ccc(Cl)cc1)c1ccc(Cl)cc1 :: Criterion not met
CC(=O)Oc1ccc(C(OC(C)=O)OC(C)=O)cc1 :: Criterion not met
COc1ccc(-c2nn(-c3ccc(NC(=O)Nc4cc(C(F)(F)F)cc(C(F)(F)F)c4)cc3)cc2-c2ccncc2)cc1Cl :: Criterion met
CCCCNC(=O)Oc1ccc(/C(=C(/CC)Cc2ccccc2)c2ccc(OCCCN(C)C)cc2)cc1 :: Criterion not met
Nc1nccc2c1ccn2-c1cccc(NC(=O)c2ccc(N3CCOCC3)c(C(F)(F)F)c2)c1 :: Criterion met

Problem: Decide: growth of `Nc1ccc(S(=O)(=O)Nc2cc(I)cc(I)c2)cc1` strictly below 70%?
Result: Criterion not met

Problem: Decide: growth of `CCN1CCN(Cc2ccc(NC(=O)Nc3cccc(-n4ccc5c(NC(=O)c6ccccc6)nccc54)c3)cc2C(F)(F)F)CC1` strictly below 70%?
Result: Criterion met

Problem: Decide: growth of CCOC(=O)C1CSC(C)(C(=O)OCC)N1 (stereo not given) strictly below 70%?
Result: Criterion not met

Problem: Decide: growth of `C#C[C@H](O)/C=C/CCCCCCC#C[C@H](O)CC[C@@H](O)C#CCCCCCC/C=C/[C@@H](O)C#C` strictly below 70%?
Result: Criterion met

Problem: Decide: growth of `Oc1ccccc1/C=N/c1ccccn1` strictly below 70%?
Result: Criterion not met

Problem: Decide: growth of `O=C(/C=C/c1ccccc1)Oc1ccc(/C=C/c2cc(OC(=O)/C=C/c3ccccc3)cc(OC(=O)/C=C/c3ccccc3)c2)cc1` strictly below 70%?
Result: Criterion not met

Problem: Decide: growth of `O=C(Nc1ccc(-n2ccc3c(NC(=O)c4ccccc4)nccc32)cc1)Nc1ccc(Cl)c(Cl)c1` strictly below 70%?
Result: Criterion met

Problem: Decide: growth of `Nc1nccc(=S)[nH]1` strictly below 70%?
Result: Criterion not met

Problem: Decide: growth of CC(CCC(=O)O)[C@H]1CCC2C3C(=O)C[C@@H]4CC(=O)CC[C@]4(C)C3CC(=O)[C@@]21C (stereo not given in full) strictly below 70%?
Result: Criterion not met

* * *

- Test system: COLO 205 colon
- protocol.description: NCI-60 one-dose screen, 48 h (100 = growth as untreated, 0 = no growth, -100 = all killed)
- protocol.conditions: 10 µM unless noted
The panel holds about 83,000 compounds, 20% with a hit somewhere; the sample as a whole holds those more often.
measured.quantity: growth (%)
// units = %; emit number, no label

Example results:
CN1C(=O)C2(SCC(C(=O)NCC(=O)OC(C)(C)C)N2C(=O)C2CCCCC2)c2ccccc21 (stereo not given) :: 99.9
COc1ccc(/C(Cl)=N/N=C(\Cl)c2cc(OC)c(OC)c(OC)c2)cc1OC(C)=O :: 98.9
O=C(Nc1ccccc1F)Nc1ccccc1Cl :: 137

Problem: # get_value(readout='growth', item= `O=C(O)c1ccc(-n2cc(/C=N/Nc3ccc(Cl)cc3)c(-c3ccc(F)c(F)c3)n2)cc1` )
Result: 99.7

* * *

Each entry below carries its recorded growth.
- Test system: SN12C renal
- protocol.description: NCI-60 one-dose screen, 48 h (100 = growth as untreated, 0 = no growth, -100 = all killed)
- protocol.conditions: 10 µM unless noted
This is part of a sample that, as a whole, favours compounds with a hit. Of some 83,000 tested, about 20% had one in any assay.
// units = %; emit number, no label

Example results:
CCN(CC)CCN1C(=O)c2c(c3c4ccccc4[nH]c3c3[nH]c4ccccc4c23)C1=O :: 79.1
O=C(c1cc(-c2ccc(Cl)cc2)nc2ccccc12)N1N=C(c2ccccc2)CC1c1cc(-c2ccccc2)nn1-c1ccccc1 (stereo not given) :: 85.5
COc1ccc(-n2c(-c3ccc(NC(=O)CCCl)cc3)nnc2-c2cc(OC)c(OC)c(OC)c2)cc1 :: 72.3

Problem: # get_value(readout='growth', item= `CSc1nc(N)nc2c1ncn2C` )
Result: 97.6

Problem: # get_value(readout='growth', item= `C=C1C(=O)O[C@H]2[C@H]1CC/C(COC(=O)c1ccc(C#N)cc1)=C\CC[C@@]1(C)O[C@@H]21` )
Result: 17.4

* * *

- System: CCRF-CEM leukemia
- protocol.description: NCI-60 one-dose screen, 48 h (100 = growth as untreated, 0 = no growth, -100 = all killed)
- protocol.conditions: 10 µM unless noted
- Protocol: Growth inhibition of the CCRF-CEM human tumor cell line is measured as a screen for anti-cancer activity. Cells are grown in 96 well plates and exposed to the test compound for 48 hours. Compounds are tested at a single concentration, which is 10^-5 M for most compounds. The reported endpoint is percent growth (GI% or GIPRCNT), where numbers from 0 - 100% represent growth inhibition, and numbers from -100% - 0 represent cell death. For example, a value of 40 represents 60% growth inhibition. […]
Compounds without any hit were thinned out: in the full panel of roughly 83,000, 20% have a hit.
Each entry below carries its recorded growth.
// units = %; emit number, no label

Example results:
CN(C)c1ncc(C#Cc2c(F)cccc2F)c2ccccc12 :: 96.3
CN(C)c1ccc(/C=N/N=C(N)N)cc1 :: 104
CCOC(=O)C1CSC(C)(C(=O)OCC)N1 (configuration not stated) :: 103
COc1ccc2c(c1)C(=O)/C(=C/c1cccc(OCC(=O)c3ccccc3)c1)O2 :: -39.3

Problem: # get_value(readout='growth', item= `CCN(CC)CC(=O)Nc1c(C)cccc1C` )
Result: 103

Problem: # get_value(readout='growth', item= `NS(=O)(=O)c1ccc(-n2nc(-c3ccc(Cl)cc3)ccc2=O)cc1` )
Result: 86.4

Problem: # get_value(readout='growth', item= `COc1cc(NC(=O)C#Cc2ccccc2)c(OC)cc1Cl` )
Result: 11.1

Problem: # get_value(readout='growth', item= `Nc1nccc(=S)[nH]1` )
Result: 113

Problem: # get_value(readout='growth', item= `Oc1ccc(O)c(-[n+]2ccccc2)c1` )
Result: 101

Problem: # get_value(readout='growth', item= `COc1cc(Cn2cc3c(c2)-c2onc(CO)c2CC3)cc(OC)c1OC` )
Result: 91.3

Problem: # get_value(readout='growth', item= `Cc1[nH]n(C(=O)c2ccncc2)c(=O)c1N=Nc1ccc(S(=O)(=O)Nc2ccncn2)cc1` )
Result: -33.9

Problem: # get_value(readout='growth', item= `COc1cc(-c2nc(SCC(=O)Nc3ccc(C(C)=O)cc3)[nH]c(=O)c2C#N)cc(OC)c1OC` )
Result: -11.9
